Reference for the values: patent US6914045B2

System: Staphylococcus sp.
Experiment: in vitro antibacterial evaluation, MIC by broth dilution
Assay type: cell-based
Settings: strain GC 4546; broth dilution, 18 hours at 35° C.
Quantity Kind: MIC Staphylococcus haemolyticus (GC 4546) (µg/mL)
Reply with just the number (in µg/mL).

q: API: value(readout=MIC Staphylococcus haemolyticus (GC 4546), system=Staphylococcus sp.) for record CC(c1ccccc1)C1NC(=O)CNC(=O)C(CO)NC(=O)C(C(O)C2CN(Cc3ccc4ccccc4c3)C(=N)N2C2OC(CO)C(O)C(O)C2O)NC(=O)C(C(O)C2CNC(=N)N2)NC(=O)C(Cc2ccc(OC3OC(CO)C(OC4OC5COC6(OC5C(O)C4O)C4CC5CC(C4)CC6C5)C(O)C3O)cc2)NC1=O (centres unmarked)
a: 4

q: Also CC(c1ccccc1)C1NC(=O)CNC(=O)C(CO)NC(=O)C(CC2CNC(=N)N2C2OC(CO)C(O)C(O)C2O)NC(=O)C(CC2CNC(=N)N2)NC(=O)C(Cc2ccc(OC3OC(CO)C(OC4OC5COC6(OC5C(O)C4O)C4CC5CC(C4)CC6C5)C(O)C3O)cc2)NC1=O (centres unmarked) ?
a: 2

q: Do the same for CC(c1ccccc1)C1NC(=O)CNC(=O)C(CO)NC(=O)C(C(O)C2CNC(=N)N2C2OC(CO)C(O)C(O)C2O)NC(=O)C(C(O)C2CNC(=N)N2)NC(=O)C(Cc2ccc(OC3OC(CO)C(OC4OC5COC6(OC5C(O)C4O)C4CCCC6CCC4)C(O)C3O)cc2)NC1=O (centres unmarked) please
a: 2

q: Thanks! And CC(C)CC(=O)OC1C(O)C(OC2C(CO)OC(Oc3ccc(CC4NC(=O)C(C(C)c5ccccc5)NC(=O)CNC(=O)C(CO)NC(=O)C(C(O)C5CNC(=N)N5C5OC(CO)C(O)C(O)C5O)NC(=O)C(C(O)C5CNC(=N)N5)NC4=O)cc3)C(O)C2O)OC2COC3(OC21)C1CC2CC(C1)CC3C2 (centres unmarked) ?
a: 4

***
q: I'm curious: which MIC Staphylococcus haemolyticus (GC 4546) was measured for CC(c1ccccc1)C1NC(=O)CNC(=O)C(CO)NC(=O)C(C(O)C2CNC(=N)N2C2OC(CO)C(O)C(O)C2O)NC(=O)C(C(O)C2CNC(=N)N2)NC(=O)C(Cc2ccc3oc(-c4cccc([N+](=O)[O-])c4)nc3c2)NC1=O (centres unmarked) tested on Staphylococcus sp.?
a: 4

q: What do we get for CC(c1ccccc1)C1NC(=O)CNC(=O)C(CO)NC(=O)C(C(O)C2CNC(=N)N2C2OC(CO)C(O)C(O)C2O)NC(=O)C(C(O)C2CNC(=N)N2)NC(=O)C(Cc2ccc3oc(-c4ccc(Br)cc4)nc3c2)NC1=O (centres unmarked) ?
a: 4

q: Can you handle N=C1NCC(C(O)C2NC(=O)C(Cc3ccc(OC4OC(CO)C(OC5OC6COC(Cc7ccccc7)OC6C(O)C5O)C(O)C4O)cc3)NC(=O)C(CC3CCCCC3)NC(=O)CNC(=O)C(CO)NC(=O)C(C(O)C3CNC(=N)N3C3OC(CO)C(O)C(O)C3O)NC2=O)N1 (centres unmarked) next?
a: 1

====

System: Staphylococcus sp.
Assay: in vitro antibacterial evaluation, MIC by broth dilution
Format: cell-based
Details: broth dilution, 18 hours at 35° C.; strain GC 4549
Quantity Kind: MIC Coagulase Negative Staphylococcus (GC 4549) (µg/mL)
Respond numerically; units are µg/mL and should not be typed.

Example compounds with recorded MIC Coagulase Negative Staphylococcus (GC 4549):
q: Query MIC Coagulase Negative Staphylococcus (GC 4549) on Staphylococcus sp. for CC(c1ccccc1)C1NC(=O)CNC(=O)C(CO)NC(=O)C(C(O)C2CNC(=N)N2C2OC(CO)C(O)C(O)C2O)NC(=O)C(C(O)C2CNC(=N)N2)NC(=O)C(Cc2ccc(OC3OC(CO)C(OC4OC5COC(c6ccc7c(c6)OCCO7)OC5C(O)C4O)C(O)C3O)cc2)NC1=O (stereo not shown) [Example 149]
a: 1

q: Cool, now CC(c1ccccc1)C1NC(=O)CNC(=O)C(CO)NC(=O)C(C(O)C2CNC(=N)N2C2OC(CO)C(O)C(O)C2O)NC(=O)C(C(O)C2CNC(=N)N2)NC(=O)C(Cc2ccc(OC3OC(CO)C(OC4OC5COC(c6ccc(-c7ccsc7)cc6)OC5C(O)C4O)C(O)C3O)cc2)NC1=O (stereo not shown) [Example 164]
a: 0.5

q: Repeat for the following compound: CC(c1ccccc1)C1NC(=O)CNC(=O)C(CO)NC(=O)C(C(O)C2CNC(=N)N2C2OC(CO)C(O)C(O)C2O)NC(=O)C(C(O)C2CNC(=N)N2)NC(=O)C(Cc2ccc(OC3OC(CO)C(OC4OC(CO)C(O)C5OC(CC67CC8CC(CC(C8)C6)C7)OC45)C(O)C3O)cc2)NC1=O (stereo not shown) [Example 128]
a: 2

Now, please, on to the next compound.
q: Look up MIC Coagulase Negative Staphylococcus (GC 4549) with Staphylococcus sp. for this compound: N=C1NCC(C(O)C2NC(=O)[C@H](C(O)C3CNC(=N)N3)NC(=O)C(Cc3ccc(O)cc3)NC(=O)[C@H](Cc3ccccc3)NC(=O)CNC(=O)[C@H](CO)NC2=O)N1 (stereo in doubt) [Example 280a]
a: 128

====

Items are presented alongside their recorded MIC Escherichia coli (GC 4559).
Test system: Escherichia coli
Test: in vitro antibacterial evaluation, MIC by broth dilution
Type: cell-based
Details: 18 hours at 35° C.
All answers are understood in µg/mL, so give the number only.

q: Suppose we examine the compound N=C1NCC(C(O)C2NC(=O)C(Cc3ccc(OC4OC(CO)C(OC5OC6COC(Cc7ccccc7)OC6C(O)C5O)C(O)C4O)cc3)NC(=O)C(CC3CCCCC3)NC(=O)CNC(=O)C(CO)NC(=O)C(C(O)C3CNC(=N)N3C3OC(CO)C(O)C(O)C3O)NC2=O)N1 (stereo not shown) ; what MIC Escherichia coli (GC 4559) value has been reported?
a: 32

***
q: # input compound: CC(c1ccccc1)C1NC(=O)CNC(=O)C(CO)NC(=O)C(CC2CNC(=N)N2C2OC(CO)C(O)C(O)C2O)NC(=O)C(CC2CNC(=N)N2)NC(=O)C(Cc2ccc(OC3OC(CO)C(OC4OC5COC6(OC5C(O)C4O)C4CC5CC(C4)CC6C5)C(O)C3O)cc2)NC1=O (stereo not shown) ; wanted: its MIC Escherichia coli (GC 4559)
a: 64

q: Next entry: CC(c1ccccc1)C1NC(=O)CNC(=O)C(CO)NC(=O)C(C(O)C2CNC(=N)N2C2OC(CO)C(O)C(O)C2O)NC(=O)C(C(O)C2CNC(=N)N2)NC(=O)C(Cc2ccc(OC3OC(CO)C(OC4OC5COC(c6ccc(C(=O)c7ccc(I)cc7)cc6)OC5C(O)C4O)C(O)C3O)cc2)NC1=O (stereo not shown)
a: 64

q: Similarly, CC(c1ccccc1)C1NC(=O)CNC(=O)C(CO)NC(=O)C(CC2CNC(=N)N2C2OC(CO)C(O)C(O)C2O)NC(=O)C(CC2CNC(=N)N2)NC(=O)C(Cc2ccc(OC3OC(CO)C(OC4OC5COC(c6ccc(OCc7ccccc7)cc6)OC5C(O)C4O)C(O)C3O)cc2)NC1=O (stereo not shown) ?
a: 64

====

Test system: Streptococcus sp.
Assay: in vitro antibacterial evaluation, MIC by broth dilution
Assay type: cell-based
Conditions: Streptococcus pneumoniae (ATCC 6301); broth dilution, 18 hours at 35° C.
From the text: Methods for in vitro Antibacterial Evaluation (Table 1) […]
This section presents compounds with their documented MIC Streptococcus pneumoniae (ATCC 6301) values.

q: Reported MIC Streptococcus pneumoniae (ATCC 6301) for Streptococcus sp., given Cc1cccc(C2OCC3OC(OC4C(CO)OC(Oc5ccc(CC6NC(=O)C(C(C)c7ccccc7)NC(=O)CNC(=O)C(CO)NC(=O)C(C(O)C7CNC(=N)N7C7OC(CO)C(O)C(O)C7O)NC(=O)C(C(O)C7CNC(=N)N7)NC6=O)cc5)C(O)C4O)C(O)C(O)C3O2)c1 (centres unmarked) ?
a: <0.06 µg/mL

Please look at the following compound next.
q: Given the entry CC(c1ccccc1)C1NC(=O)CNC(=O)C(CO)NC(=O)C(C(O)C2CNC(=N)N2C2OC(CO)C(O)C(O)C2O)NC(=O)C(C(O)C2CNC(=N)N2)NC(=O)C(Cc2ccc(OC3OC(CO)C(OC4OC5COC(CCc6ccccc6)OC5C(O)C4O)C(O)C3O)cc2)NC1=O (centres unmarked) , what MIC Streptococcus pneumoniae (ATCC 6301) was observed with Streptococcus sp.?
a: <0.06 µg/mL

====

System: Escherichia coli
Experiment: in vitro antibacterial evaluation, MIC by broth dilution
Assay type: cell-based
Conditions: strain GC 4559; broth dilution, 18 hours at 35° C.
Excerpt: […]
Numbered stars: 1 amine (or outer) side, 2 acyl side, 3 side chain; on linkers, the order of the positions; unused ones are H or OH. Square brackets hold non-standard residues; d marks the D form. Peptide text beside a SMILES is read from it. ξ: configuration not given here. X1 = N=C1NCC(C(O)C(N[*:1])C(=O)[*:2])N1C1OC(CO)C(O)C(O)C1O; ξEnduracididine(βξ-OH,4'ξ) = N=C1NCC(C(O)C(N)C(=O)O)N1; Cha = N[CH](CC1CCCCC1)C(=O)O
Overview of recorded MIC Escherichia coli (GC 4559) for various molecules
Your answer should be a plain number; it is taken to be in µg/mL.

Look over these answered cases.
q: # query: MIC Escherichia coli (GC 4559) of entry N=C1NCC(C(O)C2NC(=O)C(CC3CCCCC3)NC(=O)C(CC3CCCCC3)NC(=O)CNC(=O)C(CO)NC(=O)C(C(O)C3CNC(=N)N3C3OC(CO)C(O)C(O)C3O)NC2=O)N1 (stereo not drawn) [Example 52] (cyclo(G[Cha][Cha][ξEnduracididine(βξ-OH,4'ξ)][X1]S); configuration not given here)
a: 64

q: Try the molecule CC(c1ccccc1)C1NC(=O)CNC(=O)C(CO)NC(=O)C(C(O)C2CNC(=N)N2C2OC(CO)C(O)C(O)C2O)NC(=O)C(C(O)C2CNC(=N)N2)NC(=O)C(Cc2ccc(O)c(NC=O)c2)NC1=O (stereo not drawn)
a: 32

# context switch: different molecule, same MIC Escherichia coli (GC 4559)
q: Which MIC Escherichia coli (GC 4559) reading was recorded for the molecule CC(c1ccccc1)C1NC(=O)CNC(=O)C(CO)NC(=O)C(C(O)C2CNC(=N)N2C2OC(CO)C(O)C(O)C2O)NC(=O)C(C(O)C2CNC(=N)N2)NC(=O)C(Cc2ccc3oc(-c4cccc([N+](=O)[O-])c4)nc3c2)NC1=O (stereo not drawn) ?
a: 64
